- measurement-target: ActRIIA and ActRIIB (on TGFB/SMAD SBE Reporter HEK293 cells) (human)
- Sequence (chain, as listed by the source, chain 1 of 2): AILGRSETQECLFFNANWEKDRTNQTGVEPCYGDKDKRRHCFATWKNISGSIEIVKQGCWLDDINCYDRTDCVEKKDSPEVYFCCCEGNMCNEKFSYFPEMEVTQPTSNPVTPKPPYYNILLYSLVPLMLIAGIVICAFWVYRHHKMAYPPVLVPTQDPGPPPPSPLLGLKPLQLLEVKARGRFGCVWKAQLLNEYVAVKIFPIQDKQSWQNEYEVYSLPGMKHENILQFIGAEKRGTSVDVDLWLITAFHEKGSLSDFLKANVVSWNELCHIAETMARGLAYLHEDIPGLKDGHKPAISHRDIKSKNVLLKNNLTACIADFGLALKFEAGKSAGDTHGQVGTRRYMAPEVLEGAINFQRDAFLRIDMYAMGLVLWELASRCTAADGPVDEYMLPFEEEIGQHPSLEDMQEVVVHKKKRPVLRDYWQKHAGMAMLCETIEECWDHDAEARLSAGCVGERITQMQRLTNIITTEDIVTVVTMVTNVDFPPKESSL
- Sequence (chain, as listed by the source, chain 2 of 2): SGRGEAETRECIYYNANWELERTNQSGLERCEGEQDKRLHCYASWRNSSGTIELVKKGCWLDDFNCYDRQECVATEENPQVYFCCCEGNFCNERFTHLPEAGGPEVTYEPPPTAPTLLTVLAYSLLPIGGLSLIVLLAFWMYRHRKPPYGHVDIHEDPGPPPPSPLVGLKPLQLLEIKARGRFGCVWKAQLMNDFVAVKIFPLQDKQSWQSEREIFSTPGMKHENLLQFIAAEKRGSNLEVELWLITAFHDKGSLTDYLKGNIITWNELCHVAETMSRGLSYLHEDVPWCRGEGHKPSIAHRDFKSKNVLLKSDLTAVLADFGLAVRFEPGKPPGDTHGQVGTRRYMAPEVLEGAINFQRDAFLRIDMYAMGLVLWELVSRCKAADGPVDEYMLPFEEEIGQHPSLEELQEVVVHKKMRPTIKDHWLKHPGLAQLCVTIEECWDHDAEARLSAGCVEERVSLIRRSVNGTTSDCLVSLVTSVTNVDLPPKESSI
- method-notes: cell-based or functional assay
IC50, Activin SMAD RGA by entry:

Look over these answered cases.
binder | result
Riaba Fab (Fab, V domains shown, Fab) VH: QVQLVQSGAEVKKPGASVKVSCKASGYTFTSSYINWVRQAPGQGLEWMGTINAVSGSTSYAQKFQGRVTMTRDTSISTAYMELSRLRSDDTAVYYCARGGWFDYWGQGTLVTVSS VL: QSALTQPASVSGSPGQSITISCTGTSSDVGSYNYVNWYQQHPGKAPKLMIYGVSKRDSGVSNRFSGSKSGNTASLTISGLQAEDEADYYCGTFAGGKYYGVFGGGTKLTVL | 27.9 nM
Antibody Fasnetsküchla (antibody, V domains shown, full-length IgG) VH: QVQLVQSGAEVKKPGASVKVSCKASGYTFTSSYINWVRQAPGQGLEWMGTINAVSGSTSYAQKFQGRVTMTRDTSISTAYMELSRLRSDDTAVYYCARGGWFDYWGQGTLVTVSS VL: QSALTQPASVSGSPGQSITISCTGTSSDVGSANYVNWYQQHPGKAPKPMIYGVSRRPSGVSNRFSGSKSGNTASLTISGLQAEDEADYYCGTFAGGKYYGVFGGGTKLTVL | 0.43 nM
Bimagrumab (antibody, V domains shown) VH: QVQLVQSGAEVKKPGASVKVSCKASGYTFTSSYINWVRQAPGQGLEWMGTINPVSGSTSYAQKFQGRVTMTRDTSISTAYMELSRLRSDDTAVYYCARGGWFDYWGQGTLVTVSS VL: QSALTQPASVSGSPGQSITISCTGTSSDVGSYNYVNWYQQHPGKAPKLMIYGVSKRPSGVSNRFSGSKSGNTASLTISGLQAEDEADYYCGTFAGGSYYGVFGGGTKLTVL | 0.5 nM
Antibody Ochsamaulsalat (antibody, V domains shown, full-length IgG) VH: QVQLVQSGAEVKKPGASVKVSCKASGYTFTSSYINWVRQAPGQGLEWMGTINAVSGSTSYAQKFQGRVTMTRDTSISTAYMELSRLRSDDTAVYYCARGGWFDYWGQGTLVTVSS VL: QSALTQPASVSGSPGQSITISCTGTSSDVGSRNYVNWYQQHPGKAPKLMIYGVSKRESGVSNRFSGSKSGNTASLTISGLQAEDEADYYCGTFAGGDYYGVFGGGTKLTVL | 0.43 nM

Shift focus to the following entry.
State the recorded IC50, Activin SMAD RGA for this entry: Antibody Rippla (antibody, V domains shown, full-length IgG; also called Ripp1a) VH: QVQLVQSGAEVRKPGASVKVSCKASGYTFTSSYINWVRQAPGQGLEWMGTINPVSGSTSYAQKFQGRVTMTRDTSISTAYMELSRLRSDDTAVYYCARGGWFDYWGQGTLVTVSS VL: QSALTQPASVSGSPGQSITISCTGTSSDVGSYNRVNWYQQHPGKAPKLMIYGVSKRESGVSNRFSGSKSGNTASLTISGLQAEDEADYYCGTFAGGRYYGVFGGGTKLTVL
0.09 nM
